Test: Biodistribution study in LNCaP tumor-bearing mice (Th227 counted in organs)
Assay type: in vivo, SCID mice
Conditions: 4 hr; 1500 kBq/kg
recorded metric: Th-227 in lung (% ID Th-227/g organ)
Reply numerically in % ID Th-227/g organ, unit not repeated.

Input: Query: Th-227 in lung; subject: O=C([O-])CN1CCN(CC(=O)[O-])CCN(CC(=O)NCc2ccc(C(=O)N[C@@H](Cc3ccc4ccccc4n3)C(=O)NCCCC[C@H](NC(=O)N[C@@H](CCC(=O)O)C(=O)O)C(=O)O)nc2)CCN(CC(=O)[O-])CC1.[227Th+4] [Example 34-B-227Th]
Output: 1.48

Input: And then O=C([O-])CN1CCN(CC(=O)[O-])CCN(CC(=O)NCC2CCC(C(=O)NC(Cc3ccc4ccccc4c3)C(=O)NCCCCC(NC(=O)NC(CCC(=O)O)C(=O)O)C(=O)O)CC2)CCN(CC(=O)[O-])CC1.[227Th+4] (stereo not shown) [Example 1-B-227Th] , what is it?
Output: 1.55

Input: Now consider O=C([O-])CN1CCN(CC(=O)[O-])CCN(CC(=O)NCC2CCC(C(=O)NC(Cc3ccc4ccccc4c3)C(=O)NCCCCC(NC(=O)NC(CCC(=O)O)C(=O)O)C(=O)O)CC2)CCN(CC(=O)[O-])CC1.[227Th+4] [Example 1-B-D-227Th] .
Output: 0.43

Input: Also check Cc1cc(C(=O)NCCN(CCCN(CCNC(=O)c2cc(C)n(CC(=O)O)c(=O)c2[O-])CCNC(=O)c2cc(C)n(CC(=O)NCC3CCC(C(=O)NC(Cc4cnc5ccccc5c4)C(=O)NCCCCC(NC(=O)NC(CCC(=O)O)C(=O)O)C(=O)O)CC3)c(=O)c2[O-])CCNC(=O)c2cc(C)n(CC(=O)NCC3CCC(C(=O)NC(Cc4cnc5ccccc5c4)C(=O)NCCCCC(NC(=O)NC(CCC(=O)O)C(=O)O)C(=O)O)CC3)c(=O)c2[O-])c([O-])c(=O)n1CC(=O)O.[227Th+4] (stereo not shown) [Example 22-C dimer-227Th]
Output: 0.38

###

Molecular target: PSMA-expressing LNCaP cells (Homo sapiens, UniProt Q04609)
Construct: PSMA-expressing LNCaP cells; endogenous in cells; host or cells: LNCaP
Sequence (Q04609 whole entry): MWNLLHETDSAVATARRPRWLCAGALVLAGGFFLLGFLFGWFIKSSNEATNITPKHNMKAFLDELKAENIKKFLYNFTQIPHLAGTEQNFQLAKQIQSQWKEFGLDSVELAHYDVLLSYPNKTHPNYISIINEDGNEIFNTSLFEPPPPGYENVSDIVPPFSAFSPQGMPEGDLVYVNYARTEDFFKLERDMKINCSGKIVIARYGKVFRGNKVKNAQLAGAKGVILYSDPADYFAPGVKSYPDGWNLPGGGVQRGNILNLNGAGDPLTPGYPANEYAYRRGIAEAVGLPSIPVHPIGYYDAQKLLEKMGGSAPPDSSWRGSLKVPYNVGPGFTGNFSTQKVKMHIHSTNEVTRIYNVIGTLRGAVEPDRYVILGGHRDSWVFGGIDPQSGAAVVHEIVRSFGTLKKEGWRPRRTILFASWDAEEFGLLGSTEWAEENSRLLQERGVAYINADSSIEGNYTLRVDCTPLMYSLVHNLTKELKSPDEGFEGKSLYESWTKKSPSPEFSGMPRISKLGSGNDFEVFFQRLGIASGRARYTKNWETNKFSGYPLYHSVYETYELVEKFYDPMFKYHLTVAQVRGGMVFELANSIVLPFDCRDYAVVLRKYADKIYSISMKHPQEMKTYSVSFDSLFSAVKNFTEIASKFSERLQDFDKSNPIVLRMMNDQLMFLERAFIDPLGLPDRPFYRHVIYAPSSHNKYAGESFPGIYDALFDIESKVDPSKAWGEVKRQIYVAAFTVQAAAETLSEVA
Assay: Binding competition assay against 3H-PSMA-617 on LNCaP cells
Details: LNCaP cells; 10 nM 3H-PSMA-617; competing non-radiolabeled compound 10 nM; 2 h at 37° C.; triplicates
recorded metric: remaining activity at 0.01 µM (%)
Give your result in % as a bare value.

Input: Given the entry O=C(O)CC[C@H](NC(=O)N[C@@H](CCCCNC(=O)[C@H](Cc1ccc2ccccc2c1)NC(=O)c1ccc(CNC(=O)CN2CCN(CC(=O)O)CCN(CC(=O)O)CCN(CC(=O)O)CC2)cn1)C(=O)O)C(=O)O [Example 25-B] , report its measured remaining activity at 0.01 µM.
Output: 54

Input: Same question, NC[C@H]1CC[C@H](C(=O)N[C@H](Cc2ccc3cccnc3c2)C(=O)NCCCC[C@H](NC(=O)N[C@@H](CCC(=O)O)C(=O)O)C(=O)O)CC1 [Example 45-A] this time
Output: 93

Input: Next molecule: Cc1cc(C(=O)NCCN(CCCN(CCNC(=O)c2cc(C)n(CC(=O)O)c(=O)c2O)CCNC(=O)c2cc(C)n(CC(=O)NC[C@H]3CC[C@H](C(=O)N[C@@H](Cc4ccc5ccccc5c4)C(=O)NCCCC[C@H](NC(=O)N[C@@H](CCC(=O)O)C(=O)O)C(=O)O)CC3)c(=O)c2O)CCNC(=O)c2cc(C)n(CC(=O)O)c(=O)c2O)c(O)c(=O)n1CC(=O)O [Example 1-C Monomer]
Output: 32

Input: Would you mind doing NC[C@H]1CC[C@H](C(=O)N[C@@H](CCCCNC(=O)c2cccnc2)C(=O)NCCCC[C@H](NC(=O)N[C@@H](CCC(=O)O)C(=O)O)C(=O)O)CC1 [Example 9-A] as well?
Output: 147

Input: Please give the result for CNc1cc(C[C@@H](NC(=O)[C@H]2CC[C@H](CNC(=O)CN3CCN(CC(=O)O)CCN(CC(=O)O)CCN(CC(=O)O)CC3)CC2)C(=O)NCCCC[C@H](NC(=O)N[C@@H](CCC(=O)O)C(=O)O)C(=O)O)cc2ccccc12 [Example 37-B] too.
Output: 55

Input: Follow-up item: O=C(O)CC[C@H](NC(=O)N[C@@H](CCCCNC(=O)[C@H](Cc1ccc2ccccc2n1)NC(=O)[C@H]1CC[C@H](CNC(=O)CN2CCN(CC(=O)O)CCN(CC(=O)O)CCN(CC(=O)O)CC2)CC1)C(=O)O)C(=O)O [Example 17-B]
Output: 55

Input: // query: NC[C@H]1CC[C@H](C(=O)N[C@@H](Cc2ccc(Br)cn2)C(=O)NCCCC[C@H](NC(=O)N[C@@H](CCC(=O)O)C(=O)O)C(=O)O)CC1 [Example 31-A]
Output: 61

Input: One more molecule: NC[C@H]1CC[C@H](C(=O)N[C@@H](Cc2cccc(F)c2)C(=O)NCCCC[C@H](NC(=O)N[C@@H](CCC(=O)O)C(=O)O)C(=O)O)CC1 [Example 10-A]
Output: 91

Input: Let us now turn to COc1ccc(CC(NC(=O)[C@H]2CC[C@H](CN)CC2)C(=O)NCCCC[C@H](NC(=O)N[C@@H](CCC(=O)O)C(=O)O)C(=O)O)cc1OC (stereo partly shown) [Example 19-A]
Output: 84

Input: // same read-out, input: Cc1cc(C(=O)NCCN(CCCN(CCNC(=O)c2cc(C)n(CC(=O)O)c(=O)c2O)CCNC(=O)c2cc(C)n(CC(=O)NC[C@H]3CC[C@H](C(=O)N[C@@H](Cc4ccc5ccccc5n4)C(=O)NCCCC[C@H](NC(=O)N[C@@H](CCC(=O)O)C(=O)O)C(=O)O)CC3)c(=O)c2O)CCNC(=O)c2cc(C)n(CC(=O)O)c(=O)c2O)c(O)c(=O)n1CC(=O)O [Example 17-C monomer]
Output: 42

Input: Please do the same for COc1c(C[C@@H](NC(=O)[C@H]2CC[C@H](CN)CC2)C(=O)NCCCC[C@H](NC(=O)N[C@@H](CCC(=O)O)C(=O)O)C(=O)O)ccc2ccccc12 [Example 33-A] as well.
Output: 66

Input: NC[C@H]1CC[C@H](C(=O)N[C@@H](Cc2ccc(O)cc2)C(=O)NCCCC[C@H](NC(=O)N[C@@H](CCC(=O)O)C(=O)O)C(=O)O)CC1 [Example 15-A] ?
Output: 133

Input: Cool, now NC[C@H]1CC[C@H](C(=O)N[C@@H](Cc2csc3ccccc23)C(=O)NCCCC[C@H](NC(=O)N[C@@H](CCC(=O)O)C(=O)O)C(=O)O)CC1 [Example 43-A]
Output: 96

Input: Follow-up item: CNCC[C@H]1CC[C@H](C(=O)N[C@H](Cc2cc(OC)c3ccccc3c2)C(=O)NCCCC[C@H](NC(=O)N[C@@H](CCC(=O)O)C(=O)O)C(=O)O)CC1 [Example 35-A]
Output: 113

Input: Please give the result for CC(=O)NCCCC[C@H](NC(=O)[C@H]1CC[C@H](CN)CC1)C(=O)NCCCC[C@H](NC(=O)N[C@@H](CCC(=O)O)C(=O)O)C(=O)O [Example 11-A] too.
Output: 117

Input: Request: NC[C@H]1CC[C@H](C(=O)N[C@@H](Cc2ccc(F)cc2)C(=O)NCCCC[C@H](NC(=O)N[C@@H](CCC(=O)O)C(=O)O)C(=O)O)CC1 [Example 7-A]
Output: 106

Input: Moving on to NC[C@H]1CC[C@H](C(=O)N[C@@H](Cc2cc(F)c(F)c(F)c2)C(=O)NCCCC[C@H](NC(=O)N[C@@H](CCC(=O)O)C(=O)O)C(=O)O)CC1 [Example 6-A]
Output: 98

Input: Field entry: NC[C@H]1CC[C@H](C(=O)N[C@@H](Cc2ccc3ccccc3n2)C(=O)NCCCC[C@H](NC(=O)N[C@@H](CCC(=O)O)C(=O)O)C(=O)O)CC1 [Example 17-A]
Output: 84

Input: Next: NCc1ccc(C(=O)N[C@@H](Cc2ccc3ccccc3c2)C(=O)NCCCC[C@H](NC(=O)N[C@@H](CCC(=O)O)C(=O)O)C(=O)O)nc1 [Example 25-A]
Output: 93

Reference source for all entries: patent US20230072421A1
